System: LXRb homodimer (NR concentration 270 nM)
procedure.details: PBM binding z-score (relative to random genomic background probes); higher = stronger binding; sequences stand for … in GC…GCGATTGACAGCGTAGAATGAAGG
experimental.endpoint: PBM binding z-score
# respond with the number and nothing more

// query Output PBM binding z-score of `GCTGCTAGGTCAACTTATGGTCAGCTAAAGCTCG`
// result 0.4

// query Output PBM binding z-score of `TTACCAAGGTGAAAGGACGTTGATGCACGCCTTG`
// result -0.801

// query Output PBM binding z-score of `GCTATTAGTTGAAAGGGCAACCGTATGATTCTCG`
// result -0.2

// query Output PBM binding z-score of `GGAACAAGGGCAAGTTGATAGCAGAGTTTGATGG`
// result -0.0748

// query Output PBM binding z-score of `CCTAGCAGGCCAGGGTCTCTCAAGCATTTCGCTT`
// result -1.15

// query Output PBM binding z-score of `GCTATTAGTTGTAAGGGCAACCGAATGATTCTCG`
// result -0.00961

// query Output PBM binding z-score of `GGAACGAGGGCATTCGAGTTGGTAGCATGGCGAT`
// result -1.08

// query Output PBM binding z-score of `AGAATGAGGTTATATGTAGATCAGGGAAGAAAGT`
// result 0.548

// query Output PBM binding z-score of `CCTTACGGGTCACGAGGTTATGGCACGACGAGCG`
// result 0.148

// query Output PBM binding z-score of `CCTGCAAGGTCAATGGTCAGCTAAAGCAGCTCGC`
// result 0.38

// query Output PBM binding z-score of `TCTTGTAGATAAGCAGGTTAAGAAAGCTGGCCAA`
// result -0.669

// query Output PBM binding z-score of `TCTATTAGATGAAGGGCAACCGACGAGTCCGTTT`
// result 0.205

// query Output PBM binding z-score of `GATACAGGGTCAGCTAGAGGCCAGTGTATGGAAA`
// result -0.768

// query Output PBM binding z-score of `TGGCCTAGGTCATTGGGCCAGTATAGTACGCATC`
// result -0.839

// query Output PBM binding z-score of `TCCGACAGGTGAAGGTAACTCAGGTACGCAGTCG`
// result -0.785

// query Output PBM binding z-score of `CGTCCAAGGTCAATGCTAGGACAGTGAAAGCATT`
// result 0.27

// query Output PBM binding z-score of `GCTGTTAGGTCAGGTTGGTCAGCTAACGGGTACG`
// result 0.0917

// query Output PBM binding z-score of `ATCTCTAGGTAAAGATAGTTCTGTGAATGCAAAT`
// result 0.796

// query Output PBM binding z-score of `TAGCCTAGGTCATGGGCCAGTAGACCACGCGAAC`
// result -0.335

// query Output PBM binding z-score of `TCTTGTAGATCAACAGGAGATTAAGAAAGATCGA`
// result -0.695

// query Output PBM binding z-score of `TCGAGTAGGCTAGGGGCATTCAGAATGGCGTCGA`
// result -1.16

// query Output PBM binding z-score of `CCTGCTAGGTCAAGGTCAGCTAATCTACAGTATG`
// result 0.294

// query Output PBM binding z-score of `ATTTCTAGGTAAAGTTCAGTGAAAGATCGATAGA`
// result 1.27

// query Output PBM binding z-score of `GCTCGGAGGACAAGGTCAGAGCATTGTCCGTAGA`
// result -0.84

// query Output PBM binding z-score of `GGAACCAGGGCAAGTTGATAGCAGAGTTTGATGG`
// result 0.488

// query Output PBM binding z-score of `AATACAGGGTCACTAGGCGAGAGTAGGTACGAAT`
// result 1.26

// query Output PBM binding z-score of `GCCAGTTGGTCAGTAAAAGGTCACACACCGGTCG`
// result -0.0245

// query Output PBM binding z-score of `TGAATGAGGTTATAAGATCAGCGAACGTTGCAAA`
// result -0.436

// query Output PBM binding z-score of `TGAATGAGGTTATAAGATCAGGCAACGTTGCAAA`
// result -0.11

// query Output PBM binding z-score of `TAGCCTAGATCATTCAGGGGCCAGTATAGAAAGC`
// result -0.168

// query Output PBM binding z-score of `CAAACTAGCTCAAAGGTCAAAGTCGAGCCAACCA`
// result 2.54

// query Output PBM binding z-score of `TCTATTAGTTGATTAGGGCAACTGAAACAGCGGA`
// result 0.522

// query Output PBM binding z-score of `ATACCAAGGTGAGCGTGAGGTCGTTGATACTAAC`
// result -0.401

// query Output PBM binding z-score of `AATACAGGGTCCCTAGGCCAGAGTAGGTACGAAT`
// result -0.575

// query Output PBM binding z-score of `TCTCGGAGGACACGAAGGACAGAGCTTTCCAGAG`
// result -1.07

// query Output PBM binding z-score of `TCTTGTAGATCAAGCCGGTTAAGAAAGCCTGAGT`
// result -0.0874

// query Output PBM binding z-score of `CCGACTGGGGCAGAAGGTTACCATAAGCCAGCCC`
// result -1.21

// query Output PBM binding z-score of `TCTAGTTGGTCACGGAGGTCACACCCGACGGGTA`
// result 0.762

// query Output PBM binding z-score of `TCTTGTAGATCAGCAGGTTAAGAACGCTGGCCAA`
// result -0.52

// query Output PBM binding z-score of `ATCTCTAGGTAAAAATAGTTCAGTGAATGCAAAT`
// result 0.656

// query Output PBM binding z-score of `ATCTCTAGGTAAAGATACTTCAGTGAATGCAAAT`
// result 0.44

// query Output PBM binding z-score of `CAGCCTAGGTCAGGGCCAGTCTAGGAGGAACGTT`
// result -1.33

// query Output PBM binding z-score of `CCTTACGGGTCACTGACAGGTTATGGCATTTGGA`
// result -0.323

// query Output PBM binding z-score of `AGTCAAAGTTCATCTAGGTAACCTAAGATATGCT`
// result 2

// query Output PBM binding z-score of `AACTCTAGGTAACCAAGTTCAGTGAATGCCGAAC`
// result 0.213

// query Output PBM binding z-score of `GCTGCTAGGTCAGGTTGATCAGCTAACGGGTACG`
// result -0.451

// query Output PBM binding z-score of `TCTATTAGTTGAAGGCCAACCGACGAGTCCGTTT`
// result 0.342

// query Output PBM binding z-score of `CAAACTAGGTGACAGAGGTCAAAGTCCGTGCGTA`
// result 1.14

// query Output PBM binding z-score of `TCGCGTAGGTTAGGGGCATTCAGAATGGCGTCGA`
// result 0.176

// query Output PBM binding z-score of `CCTCCTGGGCCAAAAAGGTCATTGATGCCGATAA`
// result 0.202

// query Output PBM binding z-score of `CCGACCGGGGCAGAAAGGTTACCATACCATCCGG`
// result -1.19
